- tested.on: ETA receptor variant K329M (Homo sapiens, UniProt P25101, K329M)
- run.description: cell-based
endpoint: pIC50
Note: pIC50 values are expressed as the negative base-10 logarithm of concentration in M.

chemical.smiles: CCCNS(=O)(=O)Nc1ncnc(OCCOc2ncc(Br)cn2)c1-c1ccc(Br)cc1
tested.on: ETA receptor variant K329M (Homo sapiens, UniProt P25101, K329M)
pIC50: 9.24

Qu. Specify measured pIC50 for COC(c1ccccc1)(c1ccccc1)[C@H](Oc1nc(C)cc(C)n1)C(=O)O .
Ans. 9.24

---

Measured IC50 shift versus wildtype (fold) on ETA receptor variant I355A (Homo sapiens, UniProt P25101, I355A) follows.
Sequence (P25101 21-427 I355A): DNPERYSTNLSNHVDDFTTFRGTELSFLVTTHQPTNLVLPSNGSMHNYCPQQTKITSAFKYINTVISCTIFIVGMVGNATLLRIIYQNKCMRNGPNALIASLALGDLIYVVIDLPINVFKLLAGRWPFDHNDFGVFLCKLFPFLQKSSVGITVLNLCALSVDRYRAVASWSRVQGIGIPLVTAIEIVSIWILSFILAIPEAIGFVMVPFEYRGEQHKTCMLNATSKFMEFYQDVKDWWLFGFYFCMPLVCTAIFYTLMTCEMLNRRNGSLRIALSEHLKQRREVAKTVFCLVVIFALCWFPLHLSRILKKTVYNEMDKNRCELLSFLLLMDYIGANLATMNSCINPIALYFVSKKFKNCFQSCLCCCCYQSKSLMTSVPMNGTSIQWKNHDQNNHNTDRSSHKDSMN
Just the number in fold, nothing appended.

Below, each entry is followed by its recorded IC50 shift versus wildtype (fold) result.
chemical.smiles: CCCNS(=O)(=O)Nc1ncnc(OCCOc2ncc(OC)cn2)c1-c1ccc(Br)cc1
display.unit: fold
IC50 shift versus wildtype (fold): 1.1
--
chemical.smiles: CCCNS(=O)(=O)Nc1ncnc(OCCOc2ncc(Br)cn2)c1-c1ccc(Cl)cc1
display.unit: fold
IC50 shift versus wildtype (fold): 0.6

# input for lookup
Qu. Report IC50 shift versus wildtype (fold) on ETA receptor variant I355A (Homo sapiens, UniProt P25101, I355A) for this entry: CCCNS(=O)(=O)Nc1ncnc(OCCOc2ncc(Br)cn2)c1-c1ccc(Br)cc1
Ans. 0.9

---

Measured pIC50 on UniProt P25101 follows.
Note: pIC50 values are expressed as the negative base-10 logarithm of concentration in M.

Below, each entry is followed by its recorded pIC50 result.
molecule: COc1ccccc1Oc1c(NS(=O)(=O)c2ccc(C)cn2)nc(-c2ccnc(-c3nnn[nH]3)c2)nc1OCCO [clazosentan]
result.number: 10.07

molecule: CCCCNS(=O)(=O)Nc1ncnc(OCCOc2ncc(Br)cn2)c1-c1ccc(Br)cc1 [macitentan analog 1]
result.number: 9.77

molecule: CCCNS(=O)(=O)Nc1ncnc(OCCOc2ncc(Br)cn2)c1-c1ccc(Cl)cc1 [macitentan analog 9]
result.number: 7.85

molecule: CCCNS(=O)(=O)Nc1ncnc(OCCOc2ncc(OC)cn2)c1-c1ccc(Br)cc1 [macitentan analog 7]
result.number: 7.39

Qu. Report pIC50 on UniProt P25101 for this entry: CCCNS(=O)(=O)Nc1ncnc(OCCOc2ncc(Br)cn2)c1-c1ccc(Br)cc1 [macitentan]
Ans. 8.92

Qu. Report pIC50 on UniProt P25101 for this entry: COC(c1ccccc1)(c1ccccc1)[C@H](Oc1nc(C)cc(C)n1)C(=O)O [ambrisentan]
Ans. 8.55

Qu. Report pIC50 on UniProt P25101 for this entry: COc1ccccc1Oc1c(NS(=O)(=O)c2ccc(C(C)C)cn2)nc(-c2ccnc(-c3nnn[nH]3)c2)nc1OCCO [tezosentan]
Ans. 9.59

---

- tested.on: ETA receptor variant R326Q (Homo sapiens, UniProt P25101, R326Q)
- Sequence (P25101 21-427 R326Q): as the sequence (P25101 21-427 I355A) above, with R306Q, A335I counted along it
- run.description: cell-based
Here the recorded IC50 is given for each entry.
Just the number in µM, nothing appended.

Below, each entry is followed by its recorded IC50 result.
compound: COc1ccccc1Oc1c(NS(=O)(=O)c2ccc(C(C)C)cn2)nc(-c2ccnc(-c3nnn[nH]3)c2)nc1OCCO [tezosentan]
endpoint: IC50
display.unit: µM
result.number: 0.013

compound: CCCNS(=O)(=O)Nc1ncnc(OCCOc2ncc(Br)cn2)c1-c1ccc(Cl)cc1 [macitentan analog 9]
endpoint: IC50
display.unit: µM
result.number: 0.046

compound: COc1ccccc1Oc1c(NS(=O)(=O)c2ccc(C)cn2)nc(-c2ccnc(-c3nnn[nH]3)c2)nc1OCCO [clazosentan]
endpoint: IC50
display.unit: µM
result.number: 0.0022

compound: CCCNS(=O)(=O)Nc1ncnc(OCCOc2ncc(OC)cn2)c1-c1ccc(Br)cc1 [macitentan analog 7]
endpoint: IC50
display.unit: µM
result.number: 0.268

compound: CCCCNS(=O)(=O)Nc1ncnc(OCCOc2ncc(Br)cn2)c1-c1ccc(Br)cc1 [macitentan analog 1]
endpoint: IC50
display.unit: µM
result.number: 0.0012

compound: CCNS(=O)(=O)Nc1ncnc(OCCOc2ncc(Br)cn2)c1-c1ccc(Br)cc1 [macitentan analog 2]
endpoint: IC50
display.unit: µM
result.number: 0.034

Qu. Specify measured IC50 for CCCNS(=O)(=O)Nc1ncnc(OCCOc2ncc(Br)cn2)c1-c1ccc(Br)cc1 [macitentan] .
Ans. 0.0076

Qu. Specify measured IC50 for COC(c1ccccc1)(c1ccccc1)[C@H](Oc1nc(C)cc(C)n1)C(=O)O [ambrisentan] .
Ans. 0.887

---

- tested.on: wildtype ETA receptor (Homo sapiens, UniProt P25101)
- Sequence (P25101 21-427): as the sequence (P25101 21-427 I355A) above, with A335I counted along it
endpoint: IC50 shift versus wildtype (fold)
Just the number in fold, nothing appended.

Qu. Report IC50 shift versus wildtype (fold) on wildtype ETA receptor (Homo sapiens, UniProt P25101) for this entry: COC(c1ccccc1)(c1ccccc1)[C@H](Oc1nc(C)cc(C)n1)C(=O)O
Ans. 1.0

Qu. Report IC50 shift versus wildtype (fold) on wildtype ETA receptor (Homo sapiens, UniProt P25101) for this entry: CCCNS(=O)(=O)Nc1ncnc(OCCOc2ncc(Br)cn2)c1-c1ccc(Cl)cc1
Ans. 1

Qu. Report IC50 shift versus wildtype (fold) on wildtype ETA receptor (Homo sapiens, UniProt P25101) for this entry: CCCCNS(=O)(=O)Nc1ncnc(OCCOc2ncc(Br)cn2)c1-c1ccc(Br)cc1
Ans. 1

Qu. Report IC50 shift versus wildtype (fold) on wildtype ETA receptor (Homo sapiens, UniProt P25101) for this entry: COc1ccccc1Oc1c(NS(=O)(=O)c2ccc(C)cn2)nc(-c2ccnc(-c3nnn[nH]3)c2)nc1OCCO
Ans. 1

---

- tested.on: ETA receptor variant D351N (Homo sapiens, UniProt P25101, D351N)
- Sequence (P25101 21-427 D351N): as the sequence (P25101 21-427 I355A) above, with D331N, A335I counted along it
- run.description: cell-based
endpoint: IC50 (nM)
Just the number in nM, nothing appended.

chemical.smiles: CCCNS(=O)(=O)Nc1ncnc(OCCOc2ncc(Br)cn2)c1-c1ccc(Br)cc1
result.number: 1.5

# input for lookup
Qu. Specify measured IC50 for COC(c1ccccc1)(c1ccccc1)[C@H](Oc1nc(C)cc(C)n1)C(=O)O .
Ans. 4.5

---

- tested.on: ETA receptor variant L322A (Homo sapiens, UniProt P25101, L322A)
- Sequence (P25101 21-427 L322A): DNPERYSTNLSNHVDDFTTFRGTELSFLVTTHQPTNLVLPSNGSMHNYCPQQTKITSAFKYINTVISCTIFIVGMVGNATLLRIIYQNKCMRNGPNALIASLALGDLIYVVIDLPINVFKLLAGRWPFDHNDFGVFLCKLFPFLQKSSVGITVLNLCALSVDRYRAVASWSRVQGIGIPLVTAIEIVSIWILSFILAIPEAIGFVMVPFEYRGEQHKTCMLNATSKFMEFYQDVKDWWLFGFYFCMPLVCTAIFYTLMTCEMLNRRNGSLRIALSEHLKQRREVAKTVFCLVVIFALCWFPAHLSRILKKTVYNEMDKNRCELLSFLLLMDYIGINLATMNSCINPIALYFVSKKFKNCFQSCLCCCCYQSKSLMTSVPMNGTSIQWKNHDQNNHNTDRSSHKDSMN
# label = 1 if IC50 shift versus wildtype (fold) < 70 fold else 0

chemical.smiles: CCNS(=O)(=O)Nc1ncnc(OCCOc2ncc(Br)cn2)c1-c1ccc(Br)cc1
assigned.category: 0
--
chemical.smiles: CCCNS(=O)(=O)Nc1ncnc(OCCOc2ncc(OC)cn2)c1-c1ccc(Br)cc1
assigned.category: 1
--
chemical.smiles: CCCNS(=O)(=O)Nc1ncnc(OCCOc2ncc(Br)cn2)c1-c1ccc(Br)cc1
assigned.category: 0
--
chemical.smiles: CCCNS(=O)(=O)Nc1ncnc(OCCOc2ncc(Br)cn2)c1-c1ccc(Cl)cc1
assigned.category: 0
--
chemical.smiles: COC(c1ccccc1)(c1ccccc1)[C@H](Oc1nc(C)cc(C)n1)C(=O)O
assigned.category: 1

Qu. IC50 shift versus wildtype (fold) under 70 fold? Item: COc1ccccc1Oc1c(NS(=O)(=O)c2ccc(C)cn2)nc(-c2ccnc(-c3nnn[nH]3)c2)nc1OCCO
Ans. 1

Qu. IC50 shift versus wildtype (fold) under 70 fold? Item: CCCCNS(=O)(=O)Nc1ncnc(OCCOc2ncc(Br)cn2)c1-c1ccc(Br)cc1
Ans. 0

Qu. IC50 shift versus wildtype (fold) under 70 fold? Item: COc1ccccc1Oc1c(NS(=O)(=O)c2ccc(C(C)C)cn2)nc(-c2ccnc(-c3nnn[nH]3)c2)nc1OCCO
Ans. 1

---

Here the recorded IC50 shift versus wildtype (fold) is given for each entry.
- tested.on: wildtype ETA receptor (Homo sapiens, UniProt P25101)
Your reply should be a number followed by the unit it is expressed in.

Below, each entry is followed by its recorded IC50 shift versus wildtype (fold) result.
chemical.smiles: CCNS(=O)(=O)Nc1ncnc(OCCOc2ncc(Br)cn2)c1-c1ccc(Br)cc1
IC50 shift versus wildtype (fold): 1 fold
--
chemical.smiles: CCCNS(=O)(=O)Nc1ncnc(OCCOc2ncc(Br)cn2)c1-c1ccc(Br)cc1
IC50 shift versus wildtype (fold): 1.0 fold
--
chemical.smiles: CCCNS(=O)(=O)Nc1ncnc(OCCOc2ncc(OC)cn2)c1-c1ccc(Br)cc1
IC50 shift versus wildtype (fold): 1 fold

# input for lookup
Qu. Report IC50 shift versus wildtype (fold) on wildtype ETA receptor (Homo sapiens, UniProt P25101) for this entry: COc1ccccc1Oc1c(NS(=O)(=O)c2ccc(C(C)C)cn2)nc(-c2ccnc(-c3nnn[nH]3)c2)nc1OCCO
Ans. 1 fold

---

- tested.on: ETA receptor variant L322A (Homo sapiens, UniProt P25101, L322A)
- run.description: cell-based
endpoint: IC50 (nM)
Just the number in nM, nothing appended.

Below, each entry is followed by its recorded IC50 result.
compound: CCCCNS(=O)(=O)Nc1ncnc(OCCOc2ncc(Br)cn2)c1-c1ccc(Br)cc1 [macitentan analog 1]
display.unit: nM
result.number: 32
--
compound: COc1ccccc1Oc1c(NS(=O)(=O)c2ccc(C)cn2)nc(-c2ccnc(-c3nnn[nH]3)c2)nc1OCCO [clazosentan]
display.unit: nM
result.number: 0.1
--
compound: COc1ccccc1Oc1c(NS(=O)(=O)c2ccc(C(C)C)cn2)nc(-c2ccnc(-c3nnn[nH]3)c2)nc1OCCO [tezosentan]
display.unit: nM
result.number: 0.53

# input for lookup
Qu. Report IC50 on ETA receptor variant L322A (Homo sapiens, UniProt P25101, L322A) for this entry: CCCNS(=O)(=O)Nc1ncnc(OCCOc2ncc(Br)cn2)c1-c1ccc(Cl)cc1 [macitentan analog 9]
Ans. 1900
